pIC50 by entry:
molecular target: Delta-type opioid receptor (Homo sapiens, UniProt P41143); assay: Antagonist activity at recombinant human delta-opioid receptor expressed in HEK293 cell membranes assessed as inhibition of DPDPE-induced [35S]GTPgammaS binding after 2 hrs by microbeta scintillation counting method; assay type: functional
Sequence (P41143 whole entry): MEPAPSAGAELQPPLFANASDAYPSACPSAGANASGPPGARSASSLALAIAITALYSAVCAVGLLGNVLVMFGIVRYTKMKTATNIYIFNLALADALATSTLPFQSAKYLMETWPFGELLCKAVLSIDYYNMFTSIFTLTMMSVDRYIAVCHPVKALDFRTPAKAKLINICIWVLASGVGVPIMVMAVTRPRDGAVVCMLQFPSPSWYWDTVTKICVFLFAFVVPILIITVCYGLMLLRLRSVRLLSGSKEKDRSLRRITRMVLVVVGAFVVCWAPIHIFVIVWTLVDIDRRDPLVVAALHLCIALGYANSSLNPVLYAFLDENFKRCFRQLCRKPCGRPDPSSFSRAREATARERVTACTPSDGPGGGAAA
pIC50: −log10 of the molar value.
READOUT LABEL: pIC50

INSERT INTO results (compound, readout_label, recorded_result) VALUES
  ('Cc1cc(C)cc(C2CCCN2Cc2ccc(Oc3ccc(C(N)=O)cc3F)cc2)c1 (racemic)', 'pIC50', 7.02),
  ('Cc1cc(C)cc(C2CCCN2Cc2ccc(Oc3ccc(C(N)=O)cc3F)c(Cl)c2)c1 (configuration not stated)', 'pIC50', 7.80);
